system_tested: T1, Human coronavirus OC43 spike extracellular domain (human coronavirus OC43, UniProt P36334 14-1297)
T1 construct: extracellular domain
assay_overview: ELISA
assay_readout: binding result

Examples from the recorded data:
binder | assay_readout | recorded_value
EW 9B (antibody, V domains shown) VH: EVQLVQSGAEVKKPGASVKVSCKASGYTFTSYYMHWVRQAPGQGLEWMGIINPSGGSTSYAQKFQGRVTMTRDTSTSTVYMELSSLRSEDTAVYYCAREDGVVPAANLMISLEDYYYYGMDVWGQGTTVTVSS VL: EIVLTQSPATLSLSPGERATLSCRASQSVSSYLAWYQQKPGQAPRLLIYDASNRATGIPARFSGSGSGTDFTLTISSLEPEDFAVYYCQQRSNWPLTFGGGTKVDIK | binding result | no binding
FJ 1C (antibody, V domains shown) VH: QVQLQESGPGLVKPSETLSLTCTVSGYSISSGYYWGWIRQPPGKGLEWIGSIYHSGSTYYNPSLKSRVTISVDTSKNQFSLKLSSVTAADTAVYYCARDKALLWFGELFTNLFDYWGQGTLVTVSS VL: QSALTQPASVSGSPGQSITISCTGTSSDVGGYNYVSWYQQHPGKAPKLMIYEVSNRPSGVSNRFSGSKSGNTASLTISGLQAEDEANYYCSSYTSSSTLVFGGGTKLTVL | binding result | no binding
FM 1A (antibody, V domains shown) VH: EVQLLESGGGVVQPGRSLRLSCAASGFTFSSYGMHWVRQAPGKGLEWVAVIWYDGSNKYYADSVKGRFTISRDNSKNTLYLQMNSLRAEDTAVYYCAREGAVGATRGFDYWGQGTLVTVSS VL: SYELTQPPSVSVAPGQTARITCGGNNIGSKSVHWYQQKPGQAPVLVVYDDSDRPSGIPERFSGSNSGNTATLTISRVEAGDEADYYCQVWDSSSDQGVFGGGTKLTVL | binding result | no binding
FG 12C (antibody, V domains shown) VH: EVQLVESGGGLVQPGRSLRLSCAASGFTFDDYAMHWVRQAPGKGLEWVSGISWNSGSIGYADSVKGRFTISRDNAKNSLYLQMNSLRAEDTALYYCAKDMRVHDYGDYYFDYWGQGTLVTVSS VL: SYELTQPPSVSVAPGKTARITCGGNNIGSKSVHWYQQKPGQAPVLVIYYDSDRPSGIPERFSGSNSGNTATLTISRVEAGDEADYYCQVWDSSSDHPVFGGGTKLTVL | binding result | no binding
FN 8C (antibody, V domains shown) VH: QVQLVESGGGVVQPGRSLRLSCAASGFTFSSYGMHWVRQAPGKGLEWVAVISYDGSNKYYADTVKGRFTISRDNSKNTLYLQMNSLRAEDTAVYYCARERTYYDILTGYRHYYGMDVWGQGTTVTVSS VL: SYELTQPPSVSVAPGQTARITCGGNNIGSKSVHWYQQKPGQAPVLVVYDDSDRPSGIPERFSGSNSGNTATLTISRVEAGDEADYYCQVWDSSSDHWVFGGGTKLTVL | binding result | no binding
EW 9C (antibody, V domains shown) VH: EVQLVESGGGVVQPGASLRLSCVASGFTFNNFGFHWVRQAPGKGLEWLAVISYEGSKTYYAESLKGRFTISRDTSKNTVYLQMNSLRAEDTAVYYCARATSIFWFGEGRNWFDPWGQGTMVTVSS VL: EIVLTQSPGTVSLSAGERATLSCRASQNVGTDLAWYVQRPGQAPRLLIYDTSNKATGIPARFSGRGSGTDFTLTIDSLEPEDFAVYYCQQRSNWPLTFGGGTKVEIR | binding result | binds
FD 1D (antibody, V domains shown) VH: EVQLVESGGGVVQPGRSLRLSCAASGFTFSSYAMHWVRQAPGKGLEWVAVISYDGSNKYYADSVKGRFTISRDNSKNTLYLQMNSLRAEDTAVYYCARAGSGSYLNWFDPWGQGTLVTVSS VL: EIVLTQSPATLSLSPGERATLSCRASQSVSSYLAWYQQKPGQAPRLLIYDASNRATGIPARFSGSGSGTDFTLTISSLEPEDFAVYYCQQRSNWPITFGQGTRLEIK | binding result | binds
FM 7B (antibody, V domains shown) VH: EVQLVQSGAEVKKPGASVKVSCKASGYTFTSYAMHWVRQAPGQRLEWMGWINTGNGNTKYSQKFQGRVTITRDTSASTAYMELSSLRSEDTAVYYCARDPTYCSSTSCYPFSWFDPWGQGTLVTVSS VL: NFMLTQPPSVSVAPGQTARITCGGNNIGSKSVHWYQQKPGQAPVLVVYDDSDRPSGIPERFSGSNSGNTATLTISRVEAGDEADYYCQVWDSTGDHSWVFGGGTKLTVL | binding result | no binding

Could you share which binding result value was measured for EW 9C-1 (antibody, V domains shown) VH: EVQLVESGGGVVQPGASLRLSCVASGFTFNNFGFHWVRQAPGKGLEWLAVISYEGSKTYYAESLKGRFTISRDTSKNTVYLQMNSLRAEDTAVYYCARATSIFWFGEGRNWFDPWGQGALVTVSS VL: EIVMTQSPGTVSLSAGERATLSCRASQNVGTDLAWYVQRPGQAPRLLIYDTSNRATGIPARFSGRGSGTDFTLTIDSLEPEDFAVYYCQQRSNWPLTFGGGTKVEIK ? binds

Could you share which binding result value was measured for FI 1C (antibody, V domains shown) VH: EVQLVESGGGLVKPGGSLRLSCAASGFTFSDYYMSWIRQAPGKGLEWVSYISSSGSTIYYADSVKGRFTISRDNAKNSLYLQMNSLRAEDTAVYYCARRSNRFLIAFDIWGQGTMVTVSS VL: QSALTQPASVSGSPGQTITISCTGTSSDVGGYNYVSWYQQHPGKAPKLMIYEVSNRPSGVSNRFSGSKSGNTASLTISGLQAEDEADYYCSSYTSSSTLVVFGGGTKLTVP ? no binding

Could you share which binding result value was measured for FD 5E (antibody, V domains shown) VH: EVQLVESGGVVVQPGGSLRLSCAASGFTFDDYAMHWVRQAPGKGLEWVSLISWDGGSTYYADSVKGRFTISRDNSKNSLYLQMNSLRAEDTALYYCAKDSVRFRYYYGMDVWGQGTTVTVSS VL: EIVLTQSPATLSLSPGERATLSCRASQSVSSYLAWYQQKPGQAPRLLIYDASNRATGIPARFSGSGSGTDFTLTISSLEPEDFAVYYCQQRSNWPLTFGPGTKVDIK ? no binding
